Entry source: patent US20020137929A1

# Test system: ZEAMX (Corn, Field)
# Procedure Summary: Preemergence herbicidal evaluation
# Assay type: in vivo, Zea mays
# Condition Notes: rate 0.0313 kg/ha; rated 4-5 weeks after treatment
Please go through the items and note down their Preemergence herbicidal rating ZEAMX.
One number for each entry.

Previously resolved entries follow.
# compound CCOC(=O)C(c1ccc(Cl)cc1)N1C(=O)CSC1=Nc1cc(-n2c(=O)cc(C(F)(F)F)n(C)c2=O)c(F)cc1Cl (racemic) [Compound 79] ; its Preemergence herbicidal rating ZEAMX = 1.0

Input CCOC(=O)CN1C(=O)CSC1=Nc1cc(N2C(=O)C3=C(CCCC3)C2=O)c(F)cc1Cl [Compound 47] . Output Preemergence herbicidal rating ZEAMX: 0.0

Item: Cn1c(C(F)(F)F)cc(=O)n(-c2cc(N=C3SCC(=O)N3[C@@H](Cc3ccccc3)C(=O)O)c(Cl)cc2F)c1=O [Compound 53] | Preemergence herbicidal rating ZEAMX: 1.0

Data point: CCCCOC(=O)CN1C(=O)CSC1=Nc1cc(-n2c(=O)cc(C(F)(F)F)n(C)c2=O)c(F)cc1Cl [Compound 111] ; Preemergence herbicidal rating ZEAMX = 0.0

Entry under test: CCOC(=O)CN1C(=O)C(Cc2ccccc2OC(C)C(=O)O)S/C1=N/c1cc(-n2c(=O)cc(C(F)(F)F)n(C)c2=O)c(F)cc1Cl (stereo not drawn) [Compound 114] . Its Preemergence herbicidal rating ZEAMX was 1.0

For this compound ( Cn1c(C(F)(F)F)cc(=O)n(-c2cc(/N=C3/SCC(=O)N3CC(=O)O)c(Cl)cc2F)c1=O [Compound 52] ), measured Preemergence herbicidal rating ZEAMX is 0.0

Would you mind giving Preemergence herbicidal rating ZEAMX for every compound in the list below?
1. CCOC(=O)CN1C(=O)C(C(=O)OCC)SC1=Nc1cc(-n2c(=O)cc(C(F)(F)F)n(C)c2=O)c(F)cc1Cl (stereo not drawn) [Compound 127]
2. Cn1c(C(F)(F)F)cc(=O)n(-c2cc(N=C3SCC(=O)N3CC(=O)OCC#N)c(Cl)cc2F)c1=O [Compound 109]

0.0
3.5

Measured Preemergence herbicidal rating ZEAMX of Cn1c(C(F)(F)F)cc(=O)n(-c2cc(N=C3SCC(=O)N3CC(=O)NS(C)(=O)=O)c(Cl)cc2F)c1=O [Compound 38] : 0.0
